Quick reference: FACS Binding Geomean of the listed items.
Target: T1, human ASGR-1 mutant construct H203 (human, UniProt P07306 1-291)
T1 construct: Arg/Glu scanning: non-arginine residues were changed to arginine; Transiently expressed on CHO-S cells
T1 sequence: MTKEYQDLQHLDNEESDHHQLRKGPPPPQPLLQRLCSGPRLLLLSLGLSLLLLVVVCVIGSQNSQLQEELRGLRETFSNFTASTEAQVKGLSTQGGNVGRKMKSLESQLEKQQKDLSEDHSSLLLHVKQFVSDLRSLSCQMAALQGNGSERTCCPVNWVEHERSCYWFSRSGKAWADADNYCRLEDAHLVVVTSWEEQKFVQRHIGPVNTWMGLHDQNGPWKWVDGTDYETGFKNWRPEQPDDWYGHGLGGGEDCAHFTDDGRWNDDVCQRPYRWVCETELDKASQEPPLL
Assay: FACS, transfected CHO-S cells, mAb 5 ug/ml
Observable: FACS Binding Geomean

Binder	Observable	Reported Result
59F2 (antibody, V domains shown, mAb) VH: EVQLVESGGGLVQPGGSLRLSCGASGFTFSSYSMNWVRQAPGKGLEWVSYISGSSNIIYYTDSVKGRFTISRDNAKNSLYLQMNSLRDEDTAVYYCARADTPMVLYFYGMDVWGQGTTVTVSS VL: SYELTQPPSVSVSPGQTASITCSGDKLGDKYASWYQQRPGQSPVLVIYQDNKRPSGIPERFSGSNSGNTATLTISGTQAMDEADYYCQAWDNNTVVFGGGTKLTVL	FACS Binding Geomean	1350
56E5 (antibody, V domains shown, mAb) VH: QVQLVQSGAEVKKPGASVKVSCQASGYTFTGYHMHWVRQAPGQGLEWMGWINPNNNATNYAQKFQGRVTMTRDTSISTAYMELRRLRSDDTAVYHCARDGTSSFDYWGQGTLVTVSS VL: DIQMTQSPSSVSASVGDRVTITCRASQGIRKWLAWYQQKPGKAPKLLIYAASSLQSGVPSRFSGSGSGTDFTLTISSLQPEDFATYYCQQANSFPFTFGPGTKVDIK	FACS Binding Geomean	20300
198D2 (antibody, V domains shown, mAb) VH: QVQLVESGGGVVQPGRSLRLSCAASGFTFRSYGMHWVRQAPGKGLEWVAVIIYDGSYKYYADSVKGRFTISRDNSKNTLYLQMNSLRAEDTAVYYCARTYSGGMDVWGQGTTVTVSS VL: QSVLTQPPSVSAAPGQKVTISCSGSSSNIGSNYVSWYQQLPGTAPKVLIYDNNKRPSGIPDRFSGSKSGTSATLGITGLQTGDEADYYCGTWDSRLNVGVFGGGTKLTVL	FACS Binding Geomean	7140
25A4 (antibody, V domains shown, mAb) VH: QVLLVQSGAEVKRPGASVKVSCKASGYTFTNYDINWVRQATGQGLEWMGWMYPNSGNTGYAQKFQGRVTMTRNTSISTAYMELSSLRSEDTAVYYCASSSGWYYFDYWGQGTLVTVSS VL: DIVMTQFPDSLAVSLGERATIKCKSSQSVLYSSHNNNYLAWYQQKPGQPPKLLLYWASTRESGVPDRFSGSGSGTEFTLTISSLEAEDVAVYYCQQYYSTPPTFGQGTKVEIK	FACS Binding Geomean	20000
72G9 (antibody, V domains shown, mAb) VH: EVQLVESGGGLVKPGGSLRLSCAASGFTFSSYSMNWVRQAPGKGLEWVSSISGSSSYIYYADSVKGRFTISRDNAKNSLYLQMNSLRAEDTAVYFCARGGSRGFDPWGQGTLVTVSS VL: DIQMTQSPSSLSASVGDRVTITCRASQSITSYLNWYQQKPGKAPKLLIYTASSLQSGVPSRFSGSGSGTDFTLTISSLQPEDFATYYCQQSHSFPFTFGPGTKVDIK	FACS Binding Geomean	18800

meta.source: patent US20190248902A1
